// data source = the supplement of paper PMC5844555

Tested on: FBXW7
test: 3' UTR reporter interaction score (median-centred robust z-score of log2 firefly/Renilla activity); higher = less repression of the 3' UTR reporter
conditions: HEK293T; 48 h
Mark condition not met for 3' UTR reporter interaction score values under -0.5, and condition met for everything at or above.

These recorded examples may help you get a feel for the data.
* AUUCAUUUGGUAUAAACCGCGAU | condition not met
* CUCCAGAGGGAAGUACUUUCU | condition met
* AAAGUGCUUCCCUUUGGACUGU | condition met

Incoming: Would you say `AAUAUUAUACAGUCAACCUCU` shows 3' UTR reporter interaction score at minimum -0.5?
Outgoing: condition met

Incoming: Would you say `CAUUGCACUUGUCUCGGUCUGA` shows 3' UTR reporter interaction score at minimum -0.5?
Outgoing: condition met

Incoming: Would you say `AAAACGGUGAGAUUUUGUUUU` shows 3' UTR reporter interaction score at minimum -0.5?
Outgoing: condition met
